Tested on: DNA
procedureDetails: Epitope mapping solid phase immunoassay (ELISA)
Type: binding
conditionsUsed: signal-to-noise (S/N) class
endpointLabel: Reactivity to DNA

clone 1.9.21: anti-LNA monoclonal hybridoma antibody, VH SEQ ID NO: 48, VL SEQ ID NO: 57 (antibody, listed as Mus musculus, V domains shown) VH: QVQLQQSGAELVRPGTSVKVSCKASGYAFTNYLIEWIKQRPGQGLEWIGVINPGSGGTNYNEKFRVKATLTADKSSSTAYMQLSSLTSDDSAVYFCARGGGYYWGQGTLVTVSA VL: DIVMTQAAPSVPVTPGESVSISCRSSKSLLHSNGNTYLFWFLQRPGQSPQVLIYRMSNLASGVPDRFSGSGSGTAFTLRISRVEAEDVGVYYCMQHLEYPYTFGSGTRLEIK : − (−: S/N <2)
clone 1.2.8: anti-LNA monoclonal hybridoma antibody, VH SEQ ID NO: 30, VL SEQ ID NO: 39 (antibody, listed as Mus musculus, V domains shown) VH: QIQLRESGPGLVAPSQSLSITCTVSGFSLTNYGVHWVRQPPGKGLEWLGVIWAGGSTIYNSALMSRLSISRDNSKSQVFLEMNSLQTYDTAMYYCARDRPFDGFFFSYWGQGTALTVSS VL: DVLMTQTPLSLPVSLGDQASISCRSSQAIVHRSGNTFLEWYLQKPGQSPKLLIYKVSNRFSGVPDRFSGSGSGTDFTLKINRVEAEDLGVYYCFQGSHVPYTFGSGTKLEIK : − (−: S/N <2)
